Kindly state kcat for each of the entries shown.
- System: dengue virus type 1
- ASSAY PROCEDURE: Activity of dengue virus 1 recombinant NS3 protease expressed in Escherichia coli C41(DE3) by fluorogenic assay
Non-standard residues stand in square brackets, D forms with d. Residues, ends and D or L forms follow the SMILES beside them. Tyr(3-NO2) = N[C@@H](Cc1ccc(O)c([N+](=O)[O-])c1)C(=O)O; 2Abz = Nc1ccccc1C(=O)O
Express the reported value numerically, then name its unit.

Example cases with answers are listed next.
COMPOUND	kcat
NC(=O)[C@H](Cc1ccc(O)c([N+](=O)[O-])c1)NC(=O)[C@H](Cc1cnc[nH]1)NC(=O)[C@@H]1CCCN1C(=O)[C@H](CO)NC(=O)[C@H](Cc1cnc[nH]1)NC(=O)c1ccccc1N (H-[2Abz]HSPH[Tyr(3-NO2)]-NH2)	0.00633 s⁻¹
CC(C)[C@H](NC(=O)[C@@H](NC(=O)CNC(=O)c1ccccc1N)[C@@H](C)O)C(=O)N[C@@H](CC(N)=O)C(=O)N[C@@H](Cc1ccc(O)c([N+](=O)[O-])c1)C(N)=O (H-[2Abz]GTVN[Tyr(3-NO2)]-NH2)	0.0193 s⁻¹
NC(=O)[C@H](Cc1ccc(O)c([N+](=O)[O-])c1)NC(=O)[C@H](CC(=O)O)NC(=O)[C@H](CO)NC(=O)[C@H](Cc1c[nH]c2ccccc12)NC(=O)[C@H](Cc1cnc[nH]1)NC(=O)c1ccccc1N (H-[2Abz]HWSD[Tyr(3-NO2)]-NH2)	0.0025 s⁻¹
CC(C)C[C@H](NC(=O)[C@@H]1CCCN1C(=O)[C@H](Cc1c[nH]c2ccccc12)NC(=O)[C@H](CO)NC(=O)c1ccccc1N)C(=O)N[C@@H](Cc1ccc(O)c([N+](=O)[O-])c1)C(N)=O (H-[2Abz]SWPL[Tyr(3-NO2)]-NH2)	0.0323 s⁻¹
CSCC[C@H](NC(=O)[C@H](C)NC(=O)[C@H](C)NC(=O)[C@H](CO)NC(=O)c1ccccc1N)C(=O)N[C@@H](Cc1ccc(O)c([N+](=O)[O-])c1)C(N)=O (H-[2Abz]SAAM[Tyr(3-NO2)]-NH2)	0.153 s⁻¹
CSCC[C@H](NC(=O)CNC(=O)[C@H](C)NC(=O)[C@H](CO)NC(=O)c1ccccc1N)C(=O)N[C@@H](Cc1ccc(O)c([N+](=O)[O-])c1)C(N)=O (H-[2Abz]SAGM[Tyr(3-NO2)]-NH2)	0.166 s⁻¹

Parameter requested: kcat. Apply to each item below.
1. C[C@H](NC(=O)c1ccccc1N)C(=O)N1CCC[C@H]1C(=O)N[C@@H](CS)C(=O)N[C@@H](CC(N)=O)C(=O)N[C@@H](Cc1ccc(O)c([N+](=O)[O-])c1)C(N)=O (H-[2Abz]APCN[Tyr(3-NO2)]-NH2)
2. NC(=O)[C@H](Cc1ccc(O)c([N+](=O)[O-])c1)NC(=O)[C@H](CS)NC(=O)[C@@H]1CCCN1C(=O)[C@H](CC(=O)O)NC(=O)CNC(=O)c1ccccc1N (H-[2Abz]GDPC[Tyr(3-NO2)]-NH2)
3. CC(C)[C@H](NC(=O)[C@H](C)NC(=O)[C@H](C)NC(=O)c1ccccc1N)C(=O)N[C@@H](CC(=O)O)C(=O)N[C@@H](Cc1ccc(O)c([N+](=O)[O-])c1)C(N)=O (H-[2Abz]AAVD[Tyr(3-NO2)]-NH2)

1: 0.0397 s⁻¹; 2: 0.0202 s⁻¹; 3: 0.0352 s⁻¹

----------
- Test system: dengue virus type 3
- ASSAY PROCEDURE: Activity of dengue virus 3 recombinant NS3 protease expressed in Escherichia coli C41(DE3) by fluorogenic assay
Non-standard residues stand in square brackets, D forms with d. Residues, ends and D or L forms follow the SMILES beside them. Tyr(3-NO2) = N[C@@H](Cc1ccc(O)c([N+](=O)[O-])c1)C(=O)O; 2Abz = Nc1ccccc1C(=O)O
ENDPOINT NAME: Km (µM)
Numbers only, in µM.

MOLECULE	Km, µM
CC(C)[C@H](NC(=O)CNC(=O)[C@H](CO)NC(=O)c1ccccc1N)C(=O)N[C@@H](CS)C(=O)N[C@@H](Cc1ccc(O)c([N+](=O)[O-])c1)C(N)=O (H-[2Abz]SGVC[Tyr(3-NO2)]-NH2)	19.7
NC(=O)[C@H](Cc1ccc(O)c([N+](=O)[O-])c1)NC(=O)[C@@H]1CCCN1C(=O)[C@@H]1CCCN1C(=O)CNC(=O)c1ccccc1N (H-[2Abz]GPP[Tyr(3-NO2)]-NH2)	18.7
C[C@H](NC(=O)c1ccccc1N)C(=O)N[C@@H](CC(N)=O)C(=O)NCC(=O)N[C@@H](Cc1cnc[nH]1)C(=O)N[C@@H](Cc1ccc(O)c([N+](=O)[O-])c1)C(N)=O (H-[2Abz]ANGH[Tyr(3-NO2)]-NH2)	31.4
NC(=O)[C@H](Cc1ccc(O)c([N+](=O)[O-])c1)NC(=O)[C@H](Cc1cnc[nH]1)NC(=O)[C@H](CS)NC(=O)CNC(=O)[C@H](CC(=O)O)NC(=O)c1ccccc1N (H-[2Abz]DGCH[Tyr(3-NO2)]-NH2)	20.8
C[C@H](NC(=O)[C@H](CC(N)=O)NC(=O)c1ccccc1N)C(=O)N[C@@H](CS)C(=O)N[C@@H](CS)C(=O)N[C@@H](Cc1ccc(O)c([N+](=O)[O-])c1)C(N)=O (H-[2Abz]NACC[Tyr(3-NO2)]-NH2)	13

Parameter requested: Km. Apply to each item below.
1. NC(=O)C[C@H](NC(=O)c1ccccc1N)C(=O)N1CCC[C@H]1C(=O)N[C@@H](CO)C(=O)N[C@@H](Cc1cnc[nH]1)C(=O)N[C@@H](Cc1ccc(O)c([N+](=O)[O-])c1)C(N)=O (H-[2Abz]NPSH[Tyr(3-NO2)]-NH2)
2. C[C@H](NC(=O)c1ccccc1N)C(=O)NCC(=O)N1CCC[C@H]1C(=O)N[C@@H](CC(N)=O)C(=O)N[C@@H](Cc1ccc(O)c([N+](=O)[O-])c1)C(N)=O (H-[2Abz]AGPN[Tyr(3-NO2)]-NH2)
3. C[C@@H](O)[C@H](NC(=O)[C@H](Cc1c[nH]c2ccccc12)NC(=O)[C@H](CC(N)=O)NC(=O)c1ccccc1N)C(=O)N[C@@H](CC(N)=O)C(=O)N[C@@H](Cc1ccc(O)c([N+](=O)[O-])c1)C(N)=O (H-[2Abz]NWTN[Tyr(3-NO2)]-NH2)
4. CSCC[C@H](NC(=O)CNC(=O)[C@H](C)NC(=O)[C@H](CO)NC(=O)c1ccccc1N)C(=O)N[C@@H](Cc1ccc(O)c([N+](=O)[O-])c1)C(N)=O (H-[2Abz]SAGM[Tyr(3-NO2)]-NH2)

1. 26.9
2. 10.8
3. 9.37
4. 24.9

Parameter requested: Km. Apply to each item below.
1. CC(C)[C@H](NC(=O)[C@H](C)NC(=O)[C@H](C)NC(=O)c1ccccc1N)C(=O)N[C@@H](CC(=O)O)C(=O)N[C@@H](Cc1ccc(O)c([N+](=O)[O-])c1)C(N)=O (H-[2Abz]AAVD[Tyr(3-NO2)]-NH2)
2. NC(=O)[C@H](Cc1ccc(O)c([N+](=O)[O-])c1)NC(=O)[C@H](CC(=O)O)NC(=O)[C@H](CS)NC(=O)[C@H](Cc1cnc[nH]1)NC(=O)[C@H](CO)NC(=O)c1ccccc1N (H-[2Abz]SHCD[Tyr(3-NO2)]-NH2)
3. CC(C)C[C@H](NC(=O)[C@@H](NC(=O)CNC(=O)[C@H](C)NC(=O)c1ccccc1N)C(C)C)C(=O)N[C@@H](Cc1ccc(O)c([N+](=O)[O-])c1)C(N)=O (H-[2Abz]AGVL[Tyr(3-NO2)]-NH2)
4. NC(=O)C[C@H](NC(=O)[C@H](Cc1cnc[nH]1)NC(=O)c1ccccc1N)C(=O)N[C@@H](CS)C(=O)N[C@@H](CS)C(=O)N[C@@H](Cc1ccc(O)c([N+](=O)[O-])c1)C(N)=O (H-[2Abz]HNCC[Tyr(3-NO2)]-NH2)
5. C[C@H](NC(=O)[C@H](CO)NC(=O)c1ccccc1N)C(=O)NCC(=O)N[C@@H](Cc1ccc(O)c([N+](=O)[O-])c1)C(N)=O (H-[2Abz]SAG[Tyr(3-NO2)]-NH2)
6. NC(=O)[C@H](Cc1ccc(O)c([N+](=O)[O-])c1)NC(=O)[C@H](CS)NC(=O)[C@@H]1CCCN1C(=O)[C@H](CC(=O)O)NC(=O)CNC(=O)c1ccccc1N (H-[2Abz]GDPC[Tyr(3-NO2)]-NH2)

21.2
11.3
10.6
10
20.9
41.5

Parameter requested: Km. Apply to each item below.
1. C[C@@H](O)[C@H](NC(=O)CNC(=O)c1ccccc1N)C(=O)NCC(=O)N[C@@H](CC(N)=O)C(=O)N[C@@H](Cc1ccc(O)c([N+](=O)[O-])c1)C(N)=O (H-[2Abz]GTGN[Tyr(3-NO2)]-NH2)
2. NC(=O)C[C@H](NC(=O)CNC(=O)[C@H](Cc1cnc[nH]1)NC(=O)[C@H](Cc1cnc[nH]1)NC(=O)c1ccccc1N)C(=O)N[C@@H](Cc1ccc(O)c([N+](=O)[O-])c1)C(N)=O (H-[2Abz]HHGN[Tyr(3-NO2)]-NH2)
3. CC(C)[C@H](NC(=O)[C@@H](NC(=O)CNC(=O)c1ccccc1N)[C@@H](C)O)C(=O)N[C@@H](CC(N)=O)C(=O)N[C@@H](Cc1ccc(O)c([N+](=O)[O-])c1)C(N)=O (H-[2Abz]GTVN[Tyr(3-NO2)]-NH2)
4. NC(=O)[C@H](Cc1ccc(O)c([N+](=O)[O-])c1)NC(=O)[C@H](Cc1cnc[nH]1)NC(=O)[C@@H]1CCCN1C(=O)[C@H](CO)NC(=O)[C@H](Cc1cnc[nH]1)NC(=O)c1ccccc1N (H-[2Abz]HSPH[Tyr(3-NO2)]-NH2)

1. 20.9
2. 10.1
3. 12.6
4. 19.6
